assay: Pharmacokinetics of intraperitoneal or intravenous injection in CD1 mice; format: in vivo; conditions: male, CD1, mouse, plasma, ip, 10 mg/kg, IP 10 mg/kg, CD1 mice plasma, 4 h; read-out: Conc. (ng/mL) Mouse 1
PROPERTY: concentration at 4 h (ng/mL)

molecule=Cc1ncsc1-c1ccc(CNC(=O)[C@@H]2C[C@@H](O)CN2C(=O)[C@@H](NC(=O)COCCOc2ccc(Nc3ncc(C(F)(F)F)c(NCc4cccc(N(C)S(C)(=O)=O)c4)n3)cc2)C(C)(C)C)cc1 property="concentration at 4 h" units_of_measure=ng/mL quantitative_readout=362
molecule=Cc1ncsc1-c1ccc(CNC(=O)[C@@H]2C[C@@H](O)CN2C(=O)[C@@H](NC(=O)CCOCCCOc2ccc(Nc3ncc(C(F)(F)F)c(NCc4cccc(N(C)S(C)(=O)=O)c4)n3)cc2)C(C)(C)C)cc1 property="concentration at 4 h" units_of_measure=ng/mL quantitative_readout=1260
molecule=Cc1ncsc1-c1ccc(CNC(=O)[C@@H]2C[C@@H](O)CN2C(=O)[C@@H](NC(=O)COCCCOc2ccc(Nc3ncc(C(F)(F)F)c(NCc4cccc(N(C)S(C)(=O)=O)c4)n3)cc2)C(C)(C)C)cc1 property="concentration at 4 h" units_of_measure=ng/mL quantitative_readout=378
molecule="CN(c1cccc(CNc2nc(Nc3ccc(OCCCOCCC(=O)NCCOc4cccc5c4C(=O)N(C4CCC(=O)NC4=O)C5=O)cc3)ncc2C(F)(F)F)c1)S(C)(=O)=O (centres unmarked)" property="concentration at 4 h" units_of_measure=ng/mL quantitative_readout=4.11
molecule=Cc1ncsc1-c1ccc(CNC(=O)[C@@H]2C[C@@H](O)CN2C(=O)[C@@H](NC(=O)CCOCCOc2ccc(Nc3ncc(C(F)(F)F)c(NCc4cccc(N(C)S(C)(=O)=O)c4)n3)cc2)C(C)(C)C)cc1 property="concentration at 4 h" units_of_measure=ng/mL quantitative_readout=560
